# Run description: Human HepG2 cell viability assay in 384 well format
# Assay type: toxicity, cell-based
# Set-up: dose 125 nL, time 70.5 hour; concentration not given beside the values
# Experimental setup: HepG2 cells, read-out: Inhibition
I'd appreciate it if you could supply cytotoxicity at 70.5 h values for the items below.
Numbers only, in %.

> print(dat)
                            compound  measured
1  CCN(Cc1ccc(C#N)cc1F)C(=O)C(C)(C)C    -0.767

Below are 4 compounds. Give each one its cytotoxicity at 70.5 h.
1. c1cncc(OCCNC2Cc3ccccc3C2)c1
2. CC(=O)N1CCCC1c1nnn2cc(Nc3ccccc3)ccc12 (configuration not stated)
3. CS(=O)(=O)CCSc1cccc(C#N)c1
4. CC(C)n1nnc(CC(=O)NCC2(c3ccccc3F)CCCC2)n1

(A)
[-14.1, -5.52, -4.4, -10.2]

Below are 2 compounds. Give each one its cytotoxicity at 70.5 h.
1. CC1CN(CC(=O)NCc2ccc(F)cc2)CCN1c1nccs1 (configuration not stated)
2. COc1no[n+]([O-])c1-c1ccccc1

(A)
1. 0.122
2. 2.46
